Tested on: Plasmodium falciparum NF54/iGP1_RE9H ulg8 stage V gametocytes
Protocol: gametocyte viability (luciferase signal relative to DMSO control) (% of DMSO control); higher = less gametocytocidal activity, active = 50 or less
Recorded Conditions: concentration: 1 µM; exposure time: 72 h
Listing of recorded gametocyte viability by entry.
Measured Attribute: gametocyte viability

> print(dat)
                                    compound                             system.tested  reported.measurement
 1  CC(C)n1nc(-c2cc3cc(O)ccc3[nH]2)c2c(N)ncnc21  Plasmodium falciparum NF54/iGP1_RE9H ulg8 stage V gametocytes                   105
 2  O=C(Nc1c[nH]nc1-c1nc2ccc(CN3CCOCC3)cc2[nH]1)NC1CC1  Plasmodium falciparum NF54/iGP1_RE9H ulg8 stage V gametocytes                   131
 3  S=C(NCc1ccc2c(c1)OCO2)N1CCN(c2ncnc3c2oc2ccccc23)CC1  Plasmodium falciparum NF54/iGP1_RE9H ulg8 stage V gametocytes                  98.1
 4  O=C(c1ccc(/C=C/c2n[nH]c3ccccc23)cc1)N1CCNCC1  Plasmodium falciparum NF54/iGP1_RE9H ulg8 stage V gametocytes                   104
 5    Cc1ccc(-c2nn(C(C)(C)C)c3ncnc(N)c23)cc1  Plasmodium falciparum NF54/iGP1_RE9H ulg8 stage V gametocytes                   103
 6  Cc1cc(C(C)Nc2ccccc2)c2nc(N3CCOCC3)cc(=O)n2c1 (stereo not drawn)  Plasmodium falciparum NF54/iGP1_RE9H ulg8 stage V gametocytes                  90.1
 7    O=C1Cc2c([nH]c3ccc(Br)cc23)-c2ccccc2N1  Plasmodium falciparum NF54/iGP1_RE9H ulg8 stage V gametocytes                  62.2
 8  c1cncc(CN2CCC(n3ncc4c(N5CCOCC5)nc(-c5ccc6[nH]ccc6c5)nc43)CC2)c1  Plasmodium falciparum NF54/iGP1_RE9H ulg8 stage V gametocytes                  95.7
 9  CS(=O)(=O)N1CCN(Cc2cc3nc(-c4cccc5[nH]ncc45)nc(N4CCOCC4)c3s2)CC1  Plasmodium falciparum NF54/iGP1_RE9H ulg8 stage V gametocytes                  97.2
10  COc1ncc(-c2ccc3nccc(-c4ccnnc4)c3c2)cc1NS(=O)(=O)c1ccc(F)cc1F  Plasmodium falciparum NF54/iGP1_RE9H ulg8 stage V gametocytes                   100
11  COc1cc2c(Oc3ccc(NC(=O)C4(C(=O)Nc5ccc(F)cc5)CC4)cc3F)ccnc2cc1OCCCN1CCOCC1  Plasmodium falciparum NF54/iGP1_RE9H ulg8 stage V gametocytes                  86.7
12  CN(C)Cc1cccc(N=C(c2ccccc2)c2c(O)[nH]c3cc(C(N)=O)ccc23)c1  Plasmodium falciparum NF54/iGP1_RE9H ulg8 stage V gametocytes                   109
13  COc1cc(Nc2c(C#N)cnc3cc(OCCCN4CCN(C)CC4)c(OC)cc23)c(Cl)cc1Cl [Bosutinib (SKI-606)]  Plasmodium falciparum NF54/iGP1_RE9H ulg8 stage V gametocytes                  86.4
14  COc1cc2nccc(Oc3ccc(NC(=O)C4(C(=O)Nc5ccc(F)cc5)CC4)cc3)c2cc1OC [XL-184 free base (Cabozantinib)]  Plasmodium falciparum NF54/iGP1_RE9H ulg8 stage V gametocytes                   100
15  O=C(O)c1cc(NCc2cc(O)ccc2O)ccc1O [2-Hydroxy-5-(2,5-dihydroxybenzylamino)benzoic acid]  Plasmodium falciparum NF54/iGP1_RE9H ulg8 stage V gametocytes                   103
16  CNC(=O)c1ccccc1Sc1ccc2c(/C=C/c3ccccn3)n[nH]c2c1  Plasmodium falciparum NF54/iGP1_RE9H ulg8 stage V gametocytes                   103
17  COc1cc2ncnc(Nc3ccc(F)c(Cl)c3)c2cc1OCCCN1CCOCC1  Plasmodium falciparum NF54/iGP1_RE9H ulg8 stage V gametocytes                  95.3
18  Fc1cc(-c2cccc3ncc(-c4cnn(C5CCNCC5)c4)nc23)cc(F)c1CN1CCOCC1  Plasmodium falciparum NF54/iGP1_RE9H ulg8 stage V gametocytes                   107

Values from the supplement of paper PMC12297408
